Each entry below lists one item and its recorded IC50 value.
- targetEntity: UniProtKB P28482
- procedureText: Active Human ERK2 (hERK2) Activity Assay (IMAP-FP)
- Type: biochemical
- experimentalConditions: phosphorylated active hERK2, 30 μM ATP; average; read-out: ERK 2 Human average IC50
experimentalReadout: IC50 (nM)

- compound: "C[C@@H](NC(=O)Nc1cc2[nH]nc(-c3ccc4nn(C)cc4c3)c2cn1)c1cccc(Cl)c1"
  observedResult: 0.672
- compound: "Cc1cc(-c2n[nH]c3cc(NC(=O)N[C@H](C)c4ccc(Cl)cc4)ncc23)ccn1"
  observedResult: 0.556
- compound: "Cc1cc(-c2n[nH]c3cc(NC(=O)NC4c5ccccc5CC4O)ncc23)ccn1 (centres unmarked)"
  observedResult: 1.34
- compound: "Cc1cc(-c2n[nH]c3cc(NC(=O)N[C@@H]4CCCc5ncccc54)ncc23)ccn1"
  observedResult: 1.49
- compound: "Cc1cc(-c2n[nH]c3cc(NC(=O)NC=C4CC4)ncc23)ccn1"
  observedResult: 481
- compound: "Cc1cc(-c2n[nH]c3cc(NC(=O)NCc4ccc(Cl)cc4F)ncc23)ccn1"
  observedResult: 3.31
- compound: "O=C(Nc1cc2[nH]nc(C3CC3)c2cn1)N[C@@H]1CCCOc2ccccc21"
  observedResult: 2.67
- compound: "C[C@@H](NC(=O)Nc1cc2[nH]nc(-c3ccnc(N4CCOCC4)c3)c2cn1)c1ccc(F)cc1"
  observedResult: 1.91

---

- targetEntity: Active Human ERK2 (hERK2) (Homo sapiens (Human))
- procedureText: Active Human ERK2 (hERK2) Activity Assay (IMAP-FP)
- Assay type: biochemical
- experimentalConditions: phosphorylated active hERK2, 30 μM ATP; average; read-out: ERK 2 Human average IC50
pIC50: −log10 of the molar value.
Each entry below lists one item and its recorded pIC50 value.

- molecule: "C[C@@H](NC(=O)Nc1cc2[nH]nc(C(=O)NCC3(O)CCC3)c2cn1)c1ccccc1 [Example 136]"
  targetEntity: "Active Human ERK2 (hERK2) (Homo sapiens (Human))"
  pIC50: 7.92
- molecule: "COCC(NC(=O)Nc1cc2[nH]nc(-c3ccnc(C)c3)c2cn1)c1ccccn1 (stereo not shown) [Example 348]"
  targetEntity: "Active Human ERK2 (hERK2) (Homo sapiens (Human))"
  pIC50: 8.66
- molecule: "C[C@@H](NC(=O)Nc1cc2[nH]nc(C3CCC3)c2cn1)c1ccccn1 [Example 149]"
  targetEntity: "Active Human ERK2 (hERK2) (Homo sapiens (Human))"
  pIC50: 7.14
- molecule: "Cc1cc(-c2n[nH]c3cc(NC(=O)N[C@H]4COC[C@@H]4O)ncc23)ccn1 [Example 188]"
  targetEntity: "Active Human ERK2 (hERK2) (Homo sapiens (Human))"
  pIC50: 7.82
- molecule: "Cc1cc(-c2n[nH]c3cc(NC(=O)N[C@H]4CN(C)C[C@@H]4C4CCOCC4)ncc23)ccn1 [Example 210]"
  targetEntity: "Active Human ERK2 (hERK2) (Homo sapiens (Human))"
  pIC50: 7.01
- molecule: "COC[C@@H](NC(=O)Nc1cc2[nH]nc(-c3ccnc(C4CC4)c3)c2cn1)c1ccccc1 [Example 605]"
  targetEntity: "Active Human ERK2 (hERK2) (Homo sapiens (Human))"
  pIC50: 9.49
- molecule: "Cc1cc(-c2n[nH]c3cc(NC(=O)N[C@@H]4CN(C)C[C@H]4F)ncc23)ccn1 [Example 329]"
  targetEntity: "Active Human ERK2 (hERK2) (Homo sapiens (Human))"
  pIC50: 7.25

---

- targetEntity: UniProt:P28482
- procedureText: Active Human ERK2 (hERK2) Activity Assay (IMAP-FP)
- Type: biochemical
- experimentalConditions: phosphorylated active hERK2, 30 μM ATP; average; read-out: ERK 2 Human average IC50
Each entry below lists one item and its recorded IC50 value.
experimentalReadout: IC50 (nM)

- compound: "COc1cc(CNC(=O)Nc2cc3[nH]nc(-c4ccnc(C)c4)c3cn2)on1"
  uom: "nM"
  observedResult: 11.1
- compound: "CCOCc1n[nH]c2cc(NC(=O)N[C@H](C)c3ccccc3)ncc12"
  uom: "nM"
  observedResult: 138
- compound: "CN1CC[C@@H](NC(=O)Nc2cc3[nH]nc(-c4ccc(F)cc4)c3cn2)C1"
  uom: "nM"
  observedResult: 1.84
- compound: "Cc1cc(-c2n[nH]c3cc(NC(=O)NC(C)(C)CO)ncc23)ccn1"
  uom: "nM"
  observedResult: 104
- compound: "Cc1cc(-c2n[nH]c3cc(NC(=O)NCc4ccccn4)ncc23)ccn1"
  uom: "nM"
  observedResult: 3.02
- compound: "C[C@@H](NC(=O)Nc1cc2[nH]nc(-c3ccc4nn(C)cc4c3)c2cn1)c1ccc(Cl)cc1"
  uom: "nM"
  observedResult: 0.562
- compound: "Cc1cc(-c2n[nH]c3cc(NC(=O)N(C)Cc4cccnc4)ncc23)ccn1"
  uom: "nM"
  observedResult: 763
- compound: "C[C@@H](NC(=O)Nc1cc2[nH]nc(C3CC3)c2cn1)c1ccccn1"
  uom: "nM"
  observedResult: 116
- compound: "Cc1cc(-c2n[nH]c3cc(NC(=O)N[C@H]4CN(C)C[C@@H]4C4CC4)ncc23)ccn1"
  uom: "nM"
  observedResult: 8.27
- compound: "Cc1cc(-c2n[nH]c3cc(NC(=O)NC(CCN4CCCC4)c4ccncc4)ncc23)ccn1 (centres unmarked)"
  uom: "nM"
  observedResult: 55.6
- compound: "Cc1cc(-c2n[nH]c3cc(NC(=O)NCc4csc5ccc(Cl)cc45)ncc23)ccn1"
  uom: "nM"
  observedResult: 5.85

---

Each entry below lists one item and its recorded pIC50 value.
- targetEntity: Active Human ERK2 (hERK2) (Homo sapiens (Human), UniProt P28482)
- Sequence (P28482 whole entry): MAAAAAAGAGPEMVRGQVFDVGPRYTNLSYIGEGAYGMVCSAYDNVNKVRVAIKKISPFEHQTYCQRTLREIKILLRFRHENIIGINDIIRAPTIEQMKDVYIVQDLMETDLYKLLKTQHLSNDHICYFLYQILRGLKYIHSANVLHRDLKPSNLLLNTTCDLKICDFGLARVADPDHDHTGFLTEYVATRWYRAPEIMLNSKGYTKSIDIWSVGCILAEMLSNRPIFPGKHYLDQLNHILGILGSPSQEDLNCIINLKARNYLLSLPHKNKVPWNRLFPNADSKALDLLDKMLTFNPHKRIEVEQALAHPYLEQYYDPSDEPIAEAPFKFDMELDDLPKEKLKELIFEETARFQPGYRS
- procedureText: Active Human ERK2 (hERK2) Activity Assay (IMAP-FP)
- Format: biochemical
- experimentalConditions: phosphorylated active hERK2, 30 μM ATP; average; read-out: ERK 2 Human average IC50
pIC50: −log10 of the molar value.

- compound: "Cc1cc(-c2n[nH]c3cc(NC(=O)NCc4cnccc4C(F)(F)F)ncc23)ccn1 [Example 510]"
  pIC50: 8.44
- compound: "Cc1cc(-c2n[nH]c3cc(NC(=O)NCC(C)c4ccccc4)ncc23)ccn1 (stereo not drawn) [Example 584]"
  pIC50: 9.17
- compound: "Cc1cc(-c2n[nH]c3cc(NC(=O)N[C@H]4CN(C)C[C@@H]4c4ccccc4F)ncc23)ccn1 [Example 185]"
  pIC50: 7.43
- compound: "Cc1cc(-c2n[nH]c3cc(NC(=O)NCC4(N(C)C)CCC4)ncc23)ccn1 [Example 193]"
  pIC50: 6.90
- compound: "COc1ncc(-c2n[nH]c3cc(NC(=O)N[C@H](C)c4ccccc4)ncc23)cn1 [Example 313]"
  pIC50: 9.14
- compound: "Cc1nc2ccc(-c3n[nH]c4cc(NC(=O)N[C@H](C)c5ccccc5)ncc34)cc2s1 [Example 87]"
  pIC50: 9.13

---

Each entry below lists one item and its recorded pIC50 value.
- targetEntity: Active Human ERK2 (hERK2) (Homo sapiens (Human), UniProt P28482)
- procedureText: Active Human ERK2 (hERK2) Activity Assay (IMAP-FP)
- Type: biochemical
- experimentalConditions: phosphorylated active hERK2, 30 μM ATP; average; read-out: ERK 2 Human average IC50
pIC50: −log10 of the molar value.
experimentalReadout: pIC50

- compound: "Cc1cccc(CNC(=O)Nc2cc3[nH]nc(C(F)F)c3cn2)n1"
  observedResult: 6.81
- compound: "CC1=NOC(C)(CNC(=O)Nc2cc3[nH]nc(-c4ccnc(C)c4)c3cn2)C1 (stereo not drawn)"
  observedResult: 7.66
- compound: "Cc1cc(-c2n[nH]c3cc(NC(=O)NC4CCNC4)ncc23)ccn1 (stereo not drawn)"
  observedResult: 7.97

---

- targetEntity: Active Human ERK2 (hERK2) (Homo sapiens (Human), UniProt P28482)
- procedureText: Active Human ERK2 (hERK2) Activity Assay (IMAP-FP)
- Assay type: biochemical
- experimentalConditions: phosphorylated active hERK2, 30 μM ATP; average; read-out: ERK 2 Human average IC50
// bucketize IC50: lower level = under 1 nM, middle level = from 1 nM up to 4 nM, upper level = 4 nM and over

- compound: "CC(=O)OC1CCCC(NC(=O)Nc2cc3[nH]nc(-c4ccnc(C)c4)c3cn2)C1 (centres unmarked)"
  class: "upper level"
- compound: "COCCNC(=O)Nc1cc2[nH]nc(-c3cc(C)nc(OC)c3)c2cn1"
  class: "upper level"
- compound: "Cc1cc(-c2n[nH]c3cc(NC(=O)NCc4nc(N)cs4)ncc23)ccn1"
  class: "middle level"
- compound: "C[C@@H](NC(=O)Nc1cc2[nH]nc(-c3ccnc(C#N)c3)c2cn1)c1ccc(F)cc1"
  class: "middle level"
- compound: "Cc1cc(-c2n[nH]c3cc(NC(=O)NCCc4nc5ccccc5n4C)ncc23)ccn1"
  class: "upper level"
- compound: "Cc1cc(-c2n[nH]c3cc(NC(=O)NCc4ncc[nH]4)ncc23)ccn1"
  class: "middle level"
- compound: "COCCNC(=O)c1n[nH]c2cc(NC(=O)N[C@H](C)c3ccccc3)ncc12"
  class: "upper level"
- compound: "Cc1cc(-c2n[nH]c3cc(NC(=O)N[C@@H]4CCCc5ccncc54)ncc23)ccn1"
  class: "middle level"
- compound: "C[C@@H](NC(=O)Nc1cc2[nH]nc(-c3ccn4ncnc4c3)c2cn1)c1ccccc1"
  class: "lower level"
- compound: "Cc1cc(-c2n[nH]c3cc(NC(=O)NCC4COc5ccccc5O4)ncc23)ccn1 (centres unmarked)"
  class: "middle level"
- compound: "Cc1cc(-c2n[nH]c3cc(NC(=O)NCc4c(C)cc(Cl)cc4Cl)ncc23)ccn1"
  class: "middle level"
- compound: "Cc1cc(-c2n[nH]c3cc(NC(=O)N[C@@H](c4ccccc4)C4(O)CCCC4)ncc23)ccn1"
  class: "lower level"
- compound: "Cc1cc(-c2n[nH]c3cc(NC(=O)NCc4ccc(F)cc4)ncc23)ccn1"
  class: "lower level"
- compound: "Cc1cc(-c2n[nH]c3cc(NC(=O)NCc4nncs4)ncc23)ccn1"
  class: "upper level"
- compound: "COC[C@@H](NC(=O)Nc1cc2[nH]nc(-c3ccncc3)c2cn1)c1ccccc1"
  class: "lower level"
- compound: "CN1CCOC(CNC(=O)Nc2cc3[nH]nc(-c4ccc(F)cc4)c3cn2)C1 (centres unmarked)"
  class: "middle level"
- compound: "Cc1cc(-c2n[nH]c3cc(NC(=O)NC(CN)c4ccccc4)ncc23)ccn1 (centres unmarked)"
  class: "lower level"
- compound: "CNC(c1n[nH]c2cc(NC(=O)N[C@H](C)c3ccccc3)ncc12)C(F)(F)F (some centres unmarked)"
  class: "upper level"
